# Test protocol: in vivo
# Study conditions: mouse, sc, 10 mg/kg
Property name: Cmax

Entry CC[C@H](C)[C@H](NC(=O)[C@H](Cc1ccc(O)cc1)NC(=O)[C@@H](NC(=O)[C@H](CCCNC(=N)N)NC(=O)[C@@H](N)CC(=O)O)C(C)C)C(=O)N[C@@H](Cc1c[nH]cn1)C(=O)N1CCC[C@H]1C(=O)O — recorded Cmax = ~200 nM

====

Parameter half-life: see the listing below.
# Study conditions: mouse, serum
Don't forget the unit after the number, please.

Molecule: CC[C@H](C)[C@H](NC(=O)[C@H](Cc1ccc(O)cc1)NC(=O)[C@@H](NC(=O)[C@H](CCCNC(=N)N)NC(=O)[C@@H](N)CC(=O)O)C(C)C)C(=O)N[C@@H](Cc1c[nH]cn1)C(=O)N1CCC[C@H]1C(N)=O [PN-A2, Ang 1-7-NH2]
half-life: 21 min

Consider now this further molecule.
Entry CC[C@H](C)[C@H](NC(=O)[C@H](Cc1ccc(O)cc1)NC(=O)[C@@H](NC(=O)[C@H](CCCNC(=N)N)NC(=O)[C@@H](N)CC(=O)O)C(C)C)C(=O)N[C@@H](Cc1c[nH]cn1)C(=O)N1CCC[C@H]1C(=O)O [native Ang-(1-7), Asp-Arg-Val-Tyr-Ile-His-Pro] — recorded half-life = 14 min

====

# Test protocol: In Vitro Serum Half-Life Assay
# Study conditions: mouse
Peptide text beside a SMILES is read from it. * marks the point of attachment. X2 = OC[C@H]1O[C@@H](O[C@H]2[C@H](O)[C@@H](O)C(*)O[C@@H]2CO)[C@H](O)[C@@H](O)[C@H]1O
Property name: half-life (h)
Give the number; h is assumed, so skip it.

Entry CC[C@H](C)[C@H](NC(=O)[C@H](Cc1ccc(O)cc1)NC(=O)[C@@H](NC(=O)[C@H](CCCNC(=N)N)NC(=O)[C@@H](N)CC(=O)O)C(C)C)C(=O)N[C@@H](Cc1c[nH]cn1)C(=O)N[C@@H](COC1O[C@H](CO)[C@@H](O[C@@H]2O[C@H](CO)[C@H](O)[C@H](O)[C@H]2O)[C@H](O)[C@H]1O)C(N)=O (stereo partly shown) [PN-A6, Ang 1-6-Ser(OLac)-NH2] (H-DRVYIHS(X2)-NH2) — recorded half-life = 5.8
